Attribution: paper PMC12596928

# Tested system: SdeA (Legionella pneumophila subsp. pneumophila)
# Protocol details: biochemical
# Test conditions: read-out: IC50
Measurement name: IC50 (µM)
// note: answer is a bare numeric in µM

Task: Which IC50 value belongs to `[Cl][Ni][Cl]` ?
Result: 67.1

Task: Can you handle `O=[N+]([O-])[O-].O=[N+]([O-])[O-].[Pb+2]` next?
Result: 43.6

Task: Can you handle `[Cl][Cu][Cl]` next?
Result: 12.3

Task: Can you handle `O=[N+]([O-])[O-].O=[N+]([O-])[O-].[Cd+2]` next?
Result: 29.8

###

# Tested system: SdeA (Legionella pneumophila subsp. pneumophila, UniProt Q5ZTK4)
# Protocol details: biochemical
Where a name gives a salt, the structure may show the parent alone.
Measurement name: inhibition at 5 µM (%)
// note: answer is a bare numeric in %

Task: Which inhibition at 5 µM value belongs to CC(=O)OCC1=C(C(=O)O)N2C(=O)[C@@H](NC(=O)CCC[C@@H](N)C(=O)O)[C@H]2SC1 [Cephalosporin C zinc salt, cephalosporin C Zn^2+ salt] ?
Result: 74.6

Task: Can you handle O=c1c(O)c(-c2ccc(O)c(O)c2)oc2cc(O)cc(O)c12 [Quercetin dihydrate] next?
Result: 52.2

Task: Can you handle O=c1cc(-c2ccccc2)oc2c(O)c(O)ccc12 [Dihydroxyflavone] next?
Result: 96.5

Task: Can you handle N#CC(C#N)=C(N)/C(C#N)=C/c1cc(O)c(O)c(O)c1 [Tyrphostin A51] next?
Result: 98.2

Task: Can you handle O=c1cc2c(=O)oc3cc(O)c(O)oc3c2c(O)c1O [Galloflavin potassium salt] next?
Result: 92.4

Task: Can you handle O=C(O)C1=CC(=C(c2ccc(O)c(C(=O)O)c2)c2ccc(O)c(C(=O)O)c2)C=CC1=O [Aurintricarboxylic acid] next?
Result: 96.3
